# System: human CCR8 (human, UniProt P51685 1-355)
# Assay info: cell-based or functional assay
Could you please report measured IC50 (nM), Ca2+ influx by 200 nM hCCL1 for the items listed next?
Give just the number in nM; leave the unit off.

Look up and state reported IC50 (nM), Ca2+ influx by 200 nM hCCL1 for 10A11 (antibody, V domains shown, mouse hybridoma antibody, purified; also called m10A11) VH: EVQLVESGGRLVQPKGSLKLSCAASGFAFNTYALYWIRQAPGKGLEWVARIRSKSNNYATYYADSVKDRFTISRDDSQSMLYLQMNNLKTEDTAMYYCVRARFYYSDYGYAMDYWGQGTSVTVSS VL: DIVMTQAAPSVPVTPGESVSISCRSSKSLLHSNGNTYLYWFLQRPGQSPQLLIYRMSNLASGVPDRFSGSGSGTAFTLRISRVEAEDVGVYYCMQHLEYPLTFGAGTKLELKR
0.23

Look up and state reported IC50 (nM), Ca2+ influx by 200 nM hCCL1 for 8F7 (antibody, V domains shown, mouse hybridoma antibody, purified) VH: EVQLVESGGRLVQPKRSLKLSCAASGFTFNPYAMYWIRQAPGQGLEWVARIRSKSNNYATYYADSVKDRFTISRDDSQSMLYLQMNNLKTEDTAMYYCVRGHQGTMDYWGQGTSVTVSS VL: DIVMTQAAPSVPVTPGESVSISCRSSKSLLHSNGNTYLYWFLQRPGQSPQLLTYRMSNLASGVPDRFSGSGSGTAFTLRISRVEAEDVGVYYCMQHLEYPFTFGGGTKLEIKR
3.03

Look up and state reported IC50 (nM), Ca2+ influx by 200 nM hCCL1 for 1H4 (antibody, V domains shown, mouse hybridoma antibody, purified) VH: EVQLVESGGRLVQPKGSLKLSCAASGFTFNTYAMYWIRQAPGKGLEWVARIRSKSNNYATYYADSVKDRFTISRDDSQSMLYLQMNNLKTEDTAMYYCVRARFYYSDYGYAMDYWGQGTSVTVSS VL: DIVMTQAAPSVPVTPGESVSISCRSSKSLLHSNGNTYLYWFLQRPGQSPQLLIYRMSNLASGVPDRFSASGSGTAFTLRISRVEAEDVGVYYCMQHLEYPLTFGAGTKLELKR
0.36

Look up and state reported IC50 (nM), Ca2+ influx by 200 nM hCCL1 for 2C7 (antibody, V domains shown, mouse hybridoma antibody, purified) VH: QVQLKQSGPSLVQPSQSLSITCTVSGFSLTAYGVHWIRQSPGKGQEWLGVIWRGGSTDYNAAFMSRLTITKDNSKSQVFFKMNSLQADDTAIYYCAKKGGSYAMDYWGQGTSVTVSS VL: DVVLTQTPLSLPVSLGGQASISCRSSQSLVHSNGNTYLHWYLQKPGQSPKLLIYKVSNRFSGVPDRFSGSGSGTDFTLKISRVEAEDLGVYFCSQSTQVPLTFGAGTKLELKR
1.19

Look up and state reported IC50 (nM), Ca2+ influx by 200 nM hCCL1 for 2-7B (antibody, V domains shown) VH: EVQLVESDGGLVQPGRSLKLSCAASGFTFSDYYMAWVRQAPTKGLEWVATITYDVYSTYYRDSVKGRFTISRDNAKSTLYLQMDSLRSEDTATYYCARHGGDGYNSGNWFAYWGQGTLVTVSS VL: DIVLTQSPALAVSLGQRATISCRASQSVSISRYNIMHWYQQKPGQQPKLLIYRASNLASGIPARFSGSGSGTDFTLTINPVQADDIATYYCQQSRESPPTFGGGTKLELKR
0.23
